Origin of values: PubChem BioAssay

Test system: Neuregulin-1 EGF-like domain
Assay: small molecules binding NRG1 EGF domain – biochemical, small-molecule microarray, 635 nm fluorescence, primary screen (AID 1081);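 note: binding of the protein to compounds printed on small-molecule microarray slides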
Settings: higher = more signal
Returns one of criterion met or criterion not met; criterion met when composite z-score is >= 1.

{"molecule": "CCCC#C[Si](O[C@H](CC)c1cn([C@H](C)c2ccccc2)nn1)(C(C)C)C(C)C", "label-value": "criterion not met"}
{"molecule": "CCOC(=O)C[C@H]1[C@H](OC(=O)c2ccccc2-c2ccccc2)[C@@H](NC(=O)c2ccc3ccccc3c2)c2cc(OCCCO)ccc2N1C(=O)c1ccccc1", "label-value": "criterion not met"}
{"molecule": "CCCCC(=C=CC[C@H](O)c1ccc(OCCO)cc1)CCO", "label-value": "criterion not met"}
{"molecule": "C=CC[C@]1(C(=O)N2CCCCC2)N=C(c2ccc(OCCCO)cc2)O[C@H]1c1ccccc1CN=[N+]=[N-]", "label-value": "criterion met"}
{"molecule": "CCCCN1CC=CC23O[C@@H]4/C=C\\CCC(C)OC(=O)C4[C@H]2C(=O)N(CCCO)[C@@H]3C1=O (stereo partly drawn)", "label-value": "criterion met"}

Input line: Quick check, composite z-score >= 1? COCCOC(=O)N1C(=O)[C@@]2(c3ccccc31)[C@H](c1ccc(O)cc1)N1[C@H](c3ccccc3)[C@H](c3ccccc3)OC(=O)[C@H]1[C@@H]2C(=O)N1CCN(c2ncccn2)CC1
Output line: criterion met

Input line: Please tell me: is the molecule O=C1O[C@@H](c2ccccc2)[C@@H](c2ccccc2)N2[C@@H](c3ccc(OCCO)cc3)[C@]3(C(=O)Nc4ccc(C#CC5=CCCCC5)cc43)[C@@H](C(=O)NC[C@H](O)c3ccccc3)[C@H]12 at or over 1 in terms of composite z-score?
Output line: criterion met

----------
Test: plasmodial surface anion channel blockers, osmotic lysis – cell-based, P. falciparum Indochina, OD700, 2 h, primary screen (AID 1155);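 note: lysis reports solute entry through the parasite surface anion channel PSAC; channel blockers reduce lysis of infected cells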
Details: P. falciparum Indochina infected erythrocytes, higher = more signal, called active from +8 up or from −8 down
Would you please tag the item label 1 when its z-score is 0.8 or above, and label 0 when it is below?

Answered examples (5):
{"compound": "COc1cc2c(cc1O)C(C1CC1)N(C)CC2 (stereo not given)", "label-value": "label 0"}
{"compound": "COc1cccc(C)c1NC(=O)O[C@H]1[C@H](OC(=O)Nc2ccc3c(c2)OCO3)[C@@H](OC(=O)Nc2ccc3c(c2)OCO3)[C@@H](OC)O[C@@H]1CO", "label-value": "label 1"}
{"compound": "COC(=O)[C@@]1(Cc2ccccc2)[C@H]2c3cc(C(=O)N(C)C)n(Cc4ccc(C)o4)c3C[C@H]2CN1C(=O)c1ccccc1", "label-value": "label 0"}
{"compound": "[N-]=[N+]=Nc1ccccc1C[C@@]1(C(=O)NCCN2CCOCC2)N=C(c2ccc(OCCCO)cc2)O[C@@H]1c1ccccc1N=[N+]=[N-]", "label-value": "label 1"}
{"compound": "CCOC(=O)C=Cc1cccc(C)c1O", "label-value": "label 0"}

Input line: State whether the measured z-score reaches 0.8, counting equality as reaching it, for COc1ccc([C@H]2OC[C@@H]3C[C@H](Cc4ccccc4)C(=O)N32)cc1
Output line: label 1

Input line: Answer whether z-score of CC1=C2[C@@H](CCc3ccccc3)OB(O)C[C@@H]2[C@@H]2C(=O)N(Cc3ccccc3)C(=O)[C@@H]2C1 is greater than or equal to 0.8.
Output line: label 1

----------
For each record, write down the corresponding composite z-score.
Tested on: glycogen synthase kinase-3 (GSK3A per assay name; protocol says GSK3B)
Experiment: compounds binding glycogen synthase kinase-3 – biochemical, small-molecule microarray, 635 nm fluorescence, GSK3A, primary screen (AID 1103); note: the record names both GSK3A and GSK3B
Conditions: fluorescence 635 nm, higher = more signal

{"compound": "COc1cc2c(cc1O)C(C1CC1)N(C)CC2 (stereo unspecified)", "target-desc": "glycogen synthase kinase-3 (GSK3A per assay name; protocol says GSK3B)", "meas-value": -1.3}
{"compound": "O=C1C2C=CC(C(O)c3ccco3)N(Nc3ccccc3F)C2C(=O)N1c1ccccc1 (stereo unspecified)", "target-desc": "glycogen synthase kinase-3 (GSK3A per assay name; protocol says GSK3B)", "meas-value": 0.179}
{"compound": "CC(=O)NCCCC[C@@H]1NC(=O)[C@@H]2C[C@H](C(=O)NCCCCCN)[C@H](c3ccc(O)cc3)N2C1=O", "target-desc": "glycogen synthase kinase-3 (GSK3A per assay name; protocol says GSK3B)", "meas-value": 1.28}
{"compound": "COc1ccc([Si](C)(C)[C@@H]2[C@@H](CCO)O[C@]3(C(=O)N(Cc4ccccc4)c4ccc(N5CCOC5=O)cc43)[C@H]2C)cc1", "target-desc": "glycogen synthase kinase-3 (GSK3A per assay name; protocol says GSK3B)", "meas-value": 0.624}
{"compound": "CN(C)c1ccc(C(O)C2C=CC3C(=O)NC(=O)C3N2Nc2ccccn2)cc1 (stereo unspecified)", "target-desc": "glycogen synthase kinase-3 (GSK3A per assay name; protocol says GSK3B)", "meas-value": 0.464}

Dear colleague, could you please provide composite z-score for the compounds listed below?
1. CC(C)C(O)C1C=CC2C(=O)N(c3ccccc3)C(=O)C2N1Nc1ccccc1 (stereo unspecified)
2. COc1ccc([Si](C)(C)[C@@H]2[C@@H](CCO)O[C@]3(C(=O)N(Cc4ccccc4)c4ccc(NC(=O)[C@H](C)O)cc43)[C@H]2C)cc1
3. CCCCCCCCCC(O)C1C=CC2C(=O)N(c3ccccc3)C(=O)C2N1Nc1cc(OC)c(OC)c(OC)c1 (stereo unspecified)

Output line:
1. 0.0942
2. 1.29
3. -0.214

# per-item lookup of composite z-score; items listed below
1. C=CCC(OC(C)=O)[C@@H]1[C@@H](N(Cc2ccc(-c3ccccc3)cc2)C(=O)c2ccc(-c3ccccc3)cc2)c2cc(OCCCO)ccc2N1C(=O)c1ccc2ccccc2c1 (stereo partly specified)
2. CCCNC(=O)[C@@H]1c2ccccc2C(=O)N(Cc2ccc(OC(F)(F)F)cc2)[C@H]1c1ccc(CO)cc1
3. Cc1ccccc1C(O)C1C=CC2C(=O)NC(=O)C2N1Nc1ccccn1 (stereo unspecified)
4. CCCCN1CC=CC23O[C@@H]4/C=C\CCCOC(=O)C4[C@H]2C(=O)N(CCO)[C@@H]3C1=O (stereo partly specified)
5. COc1ccc(C#Cc2ccc3c(c2)[C@]2(C(=O)N3)[C@H](C(=O)O)[C@H]3C(=O)O[C@H](c4ccccc4)[C@H](c4ccccc4)N3[C@@H]2c2ccc(O)cc2)cc1
6. CCOC(=O)C[C@H]1[C@H](OC(=O)Cc2ccc3c(c2)OCO3)[C@@H](NC(=O)C2CCCCC2)c2cc(OCCCO)ccc2N1C(=O)c1ccccc1
7. NC(=O)NCC#Cc1ccc2c(c1)[C@]1(C(=O)N2)[C@H](C(=O)N2CCN(c3ncccn3)CC2)[C@H]2C(=O)O[C@H](c3ccccc3)[C@H](c3ccccc3)N2[C@@H]1c1ccc(O)cc1
8. NCCCCCNC(=O)[C@@H]1C[C@@H]2C(=O)N[C@@H](CCCCN)C(=O)N2[C@@H]1c1ccc(O)cc1

Output line:
[-0.0147, 0.284, 0.0301, -0.782, -0.352, -0.0848, -0.0752, 1.34]

Please supply composite z-score for each of the following items, keeping them in order.
1. COC(=O)[C@]1(CCS(=O)(=O)c2ccccc2)N=C(c2ccc(OCCCO)cc2)O[C@@H]1c1ccccc1N=[N+]=[N-]
2. O=C(C1N=C(c2ccc(OCCCO)cc2)N(c2ccccc2)O1)N1CCCCC1 (stereo unspecified)
3. Cc1ccc(S[C@]2(C(=O)NCC(F)(F)F)CC(=O)N(Cc3cc(C(F)(F)F)cc(C(F)(F)F)c3)[C@@H]2c2ccc(CO)cc2)cc1
4. [N-]=[N+]=Nc1ccccc1C[C@]1(C(=O)NCC(O)CO)COC(c2ccc(OCCCO)cc2)=N1 (stereo partly specified)
5. COC(=O)[C@@H]1N=C(c2ccc(OCCCO)cc2)O[C@@H]1c1ccccc1

Output line:
1. 1.3
2. 1.22
3. -0.864
4. -0.269
5. -1.33

For each of the items listed, what is its composite z-score?
1. COCC(=C=CC[C@H](O)c1ccc(CO)o1)CCO
2. CO[C@H]1O[C@H](CO)[C@@H](OC(=O)Nc2ccc3c(c2)OCO3)[C@H](OC(=O)Nc2ccc3c(c2)OCO3)[C@@H]1OC(=O)Nc1ccc2c(c1)OCO2
3. CC(C)[Si](C#CCCCC#N)(O[C@H](c1ccccc1)c1cn(Cc2ccccc2)nn1)C(C)C
4. O=c1cccc(-c2ccc([N+](=O)[O-])cc2)o1
5. COC(=O)[C@@]1(Cc2ccccc2)[C@H]2c3cc(C(=O)N(C)C)n(Cc4ccc(C)o4)c3C[C@H]2CN1C(=O)c1ccccc1
6. CCC#CCN(Cc1ccccc1Br)[C@H](/C=C/C1CC1)[C@@H](O)Cc1ccccc1
7. COC(=O)[C@@]1(Cc2ccc(OC)cc2)[C@H]2c3cc(C(=O)N4CCCC4)n(CCO)c3C[C@H]2CN1C(=O)c1ccccc1
8. CCOC(=O)C[C@H]1[C@H](OC(=O)c2ccc(C(=O)c3ccccc3)cc2)[C@@H](NC(=O)c2ccc(-c3ccccc3)cc2)c2cc(OCCCO)ccc2N1C(=O)Cc1ccc(OC)cc1

Output line:
0.654
1.23
1.15
0.959
0.502
-0.0916
0.483
0.0652

Items follow; give composite z-score for each.
1. CC(C)[Si](C#C[Si](C(C)C)(C(C)C)C(C)C)(O[C@H](c1ccccc1)c1cn(Cc2ccccc2)nn1)C(C)C
2. C=C(/C(=C/C[C@H](OC(=O)c1ccncc1)c1ccc(CO)o1)c1cnc2ccccc2c1)C(C)C

Output line:
1. 0.654
2. 1.16
